# target or system: CYP2J2 (Homo sapiens, UniProt P51589)
# Sequence (P51589 whole entry): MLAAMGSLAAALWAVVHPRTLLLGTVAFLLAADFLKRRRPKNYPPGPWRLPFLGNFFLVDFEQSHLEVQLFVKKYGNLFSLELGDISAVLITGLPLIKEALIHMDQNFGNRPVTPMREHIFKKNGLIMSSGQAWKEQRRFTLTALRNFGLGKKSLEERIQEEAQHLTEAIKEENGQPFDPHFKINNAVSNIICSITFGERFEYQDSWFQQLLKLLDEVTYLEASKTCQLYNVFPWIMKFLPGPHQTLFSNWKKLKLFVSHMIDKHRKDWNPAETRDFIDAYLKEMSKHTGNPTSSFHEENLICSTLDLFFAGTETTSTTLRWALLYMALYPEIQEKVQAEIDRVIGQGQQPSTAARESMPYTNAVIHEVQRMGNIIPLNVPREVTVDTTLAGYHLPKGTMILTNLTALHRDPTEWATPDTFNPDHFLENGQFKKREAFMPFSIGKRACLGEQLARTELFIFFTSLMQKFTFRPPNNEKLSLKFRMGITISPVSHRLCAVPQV
# experiment notes: Identification of pCB metabolites formed by CYP2J2
# Assay type: in vitro ADME
# condition details: major mono-oxygenated product(s) of CYP2J2 metabolism
Kindly supply the reported Metabolite(s) values for the records listed here.

The cases that follow already have their Metabolite(s) on record.
molecule: CCCCCc1cc(O)c2c(c1)OC(C)(C)c1ccc(C)cc1-2
Metabolite(s): -1’-OH or -11-OH
--
molecule: CCCCCc1cc(O)c2c(c1)OC(C)(C)[C@@H]1CC=C(C)C[C@@H]21 [Δ8-THC, Δ8-tetrahydrocannabinol]
Metabolite(s): -1’-OH
--
molecule: CCCCCc1cc(O)c(C/C=C(\C)CCC=C(C)C)c(O)c1
Metabolite(s): -1”-OH

Below is a list of molecules. For each, state its recorded Metabolite(s).
1. C=C(C)[C@@H]1CCC(C)=C[C@H]1c1c(O)cc(CCCCC)cc1O [CBD, cannabidiol, reference compound]
2. CCCCCc1cc(O)c2c(c1)OC(C)(CCC=C(C)C)C=C2 (stereo not drawn)
3. CCCCCc1cc(O)c2c(c1)OC(C)(C)[C@@H]1CCC(C)=C[C@@H]21 [Δ9-THC, Δ9-tetrahydrocannabinol, reference compound]

A)
1. -7-OH + -1”-OH
2. -1”-OH
3. -1’-OH

---

# target or system: UniProtKB P51589
# experiment notes: Inhibition of CYP2J2-mediated AEA metabolism by pCBs
# Assay type: biochemical
# condition details: Ki, AEA Metabolism Inhibition, 30 µM pCB, CYP2J2-ND/CPR
Kindly supply the reported Ki values for the records listed here.
One number for each entry, in µM.

compound: CCCCCc1cc(O)c2c(c1)OC(C)(CCC=C(C)C)C=C2 (stereo not shown) [CBC, cannabichromene]
Ki / µM: 21.1
--
compound: CCCCCc1cc(O)c(C/C=C(\C)CCC=C(C)C)c(O)c1 [CBG, cannabigerol]
Ki / µM: 10.8
--
compound: C=C(C)[C@@H]1CCC(C)=C[C@H]1c1c(O)cc(CCCCC)cc1O [CBD, cannabidiol, reference compound]
Ki / µM: 16.9

// CCCCCc1cc(O)c2c(c1)OC(C)(C)c1ccc(C)cc1-2 [CBN, cannabinol] : Ki value = 19.4

---

Kindly supply the reported high-spin shift values for the records listed here.
# target or system: CYP2J2 (Homo sapiens)
# condition details: at saturating concentrations, CYP2J2-NDs

The cases that follow already have their high-spin shift on record.
molecule: C=C(C)[C@@H]1CCC(C)=C[C@H]1c1c(O)cc(CCCCC)cc1O [CBD, cannabidiol, reference compound]
high-spin shift: 32%
--
molecule: CCCCCc1cc(O)c(C/C=C(\C)CCC=C(C)C)c(O)c1
high-spin shift: 48%

// CCCCCc1cc(O)c2c(c1)OC(C)(C)c1ccc(C)cc1-2 : high-spin shift value = 38%

Each recorded value in this set is attributed to paper PMC5964033.
